For each record, write down the corresponding peptide exchange yield.
testSystem: T1, HLA-A*02:01 (peptide-receptive MHC class I monomer after UV cleavage of the UV-sensitive ligand) (human)
T1 construct: MHC monomers loaded by UV-ligand exchange and captured on streptavidin plates
testName: UV ligand-exchange ELISA; exchange yield grade (+ >=10%, ++ >=20%, +++ >=50%, ++++ >=75%)

IN: For the binder shown here, FLNQESFDL [FLNQESFDL (SEQ ID NO: 27)] , give the reported peptide exchange yield.
OUT: 50 to 75%

IN: And GLSEYQRNFL [GLSEYQRNFL (SEQ ID NO: 147)] ?
OUT: 50 to 75%

IN: Further, for ALIPDLNQI [ALIPDLNQI (SEQ ID NO: 195)] ?
OUT: 50 to 75%

IN: Field entry: KLLEEIEFL [KLLEEIEFL (SEQ ID NO: 165)]
OUT: 50 to 75%

IN: Repeat for the following binder: RIYPFLLMV [RIYPFLLMV (SEQ ID NO: 258)]
OUT: 50 to 75%

IN: Then FLYSETWNI [FLYSETWNI (SEQ ID NO: 254)] ?
OUT: ≥ 75%

IN: Thanks! And YLFDEIDQA [YLFDEIDQA (SEQ ID NO: 80)] ?
OUT: 50 to 75%

IN: Thanks! And NMISYVVHL [NMISYVVHL (SEQ ID NO: 276)] ?
OUT: 20 to 50%

IN: KLLKGIYAI [KLLKGIYAI (SEQ ID NO: 153)] , same question.
OUT: 50 to 75%

IN: Check YVLQGEFFL [YVLQGEFFL (SEQ ID NO: 178)] too.
OUT: 50 to 75%

IN: Param item: ILASIFETV [ILASIFETV (SEQ ID NO: 41)]
OUT: ≥ 75%

IN: How about KLFDASPTFFA [KLFDASPTFFA (SEQ ID NO: 128)] ?
OUT: 50 to 75%

IN: Check VLQDQVDEL [VLQDQVDEL (SEQ ID NO: 132)] too.
OUT: 20 to 50%

IN: Please answer likewise for AALKYIPSV [AALKYIPSV (SEQ ID NO: 75)]
OUT: 50 to 75%

IN: What do we get for ILVKQSPML [ILVKQSPML (SEQ ID NO: 151)] ?
OUT: 50 to 75%

IN: What about FIFGIVHLL [FIFGIVHLL (SEQ ID NO: 136)] ?
OUT: 50 to 75%

IN: Also check AMEEAVAQV [AMEEAVAQV (SEQ ID NO: 78)]
OUT: 50 to 75%

IN: Param item: NLLEQFILL [NLLEQFILL (SEQ ID NO: 248)]
OUT: 50 to 75%

IN: Same question, SLLETGSDLLL [SLLETGSDLLL (SEQ ID NO: 267)] this time
OUT: 50 to 75%
